Reference for the values: patent US10670605B2

Target Under Test: cysteines in MDA-MB-231 and Ramos cells (Homo sapiens, UniProt P46109)
Assay: Competitive isoTOP-ABPP in situ (fragment-treated cells)
Format: cell-based
Assay Setup: 200 μM, insitu, 231
Measure Name: isoTOP-ABPP ratio P46109_C249

Use these answered entries as a reference point.
# Molecule, isoTOP-ABPP ratio P46109_C249
records = [
    ("C=CC(=O)Nc1cc(F)c(N2CCN(C(=O)OC(C)(C)C)CC2)c(F)c1", 1.6),
    ("O=C(CCl)NC12CC3CC(CC(C3)C1)C2", 0.9),
    ("O=C(CCl)N1CCN(S(=O)(=O)c2ccccc2F)CC1", 20.0),
]

Enquiry: Please give the measured isoTOP-ABPP ratio P46109_C249 for this molecule: CC1CCc2ccccc2N1C(=O)CCl (centres unmarked)
Return: 20.0

Enquiry: What do you get for O=C(CCl)NC(=O)NC12CC3CC(CC(C3)C1)C2 ?
Return: 20.0

---

Target Under Test: cysteines in MDA-MB-231 and Ramos cells (Homo sapiens)
Assay: Competitive isoTOP-ABPP in situ (fragment-treated cells)
Type: cell-based
Assay Setup: 200 μM, insitu, 231
Measure Name: isoTOP-ABPP ratio P49189_C288

Use these answered entries as a reference point.
# Compound, Test Result
records = [
    ("O=C(CCl)NC(=O)NC12CC3CC(CC(C3)C1)C2 [compound 12]", 1.8),
    ("O=C(CCl)N1CCN(S(=O)(=O)c2ccccc2F)CC1 [compound 10]", 20.0),
    ("Cc1ccc(C=C(C#N)C(=O)NCCN2CCOCC2)cc1 [compound 41]", 0.8),
    ("O=C(CCl)NC12CC3CC(CC(C3)C1)C2 [compound 21]", 1.0),
    ("CC1CCc2ccccc2N1C(=O)CCl (stereo not drawn) [compound 45]", 20.0),
]

Enquiry: Please give the measured isoTOP-ABPP ratio P49189_C288 for this compound: C=CC(=O)Nc1cc(F)c(N2CCN(C(=O)OC(C)(C)C)CC2)c(F)c1 [compound 38]
Return: 0.7

---

Target Under Test: UBE2L3 C86 (P68036) (Homo sapiens)
Assay: Competitive isoTOP-ABPP, cell lysates
Assay type: binding
Assay Setup: 500 μm in-vitro ramos
Method: TEV digests were pressure loaded onto a 250 μm (inner diameter) fused silica capillary column packed with C18 resin (Aqua 5 μm, Phenomenex). The samples were analyzed by multidimensional liquid chromatography tandem mass spectrometry (MudPIT), using an LTQ-Velos Orbitrap mass spectrometer (Thermo Scientific) coupled to an Agilent 1200-series quaternary pump. […]
Kindly return met if reported isoTOP-ABPP ratio (reactivity profile), P68036_C86 is no lower than 1; return not met if it is lower.

# Smiles Entry, Category
measured = [
    ("C=CC(=O)N(Cc1cccnc1)c1ccc(Oc2ccccc2)c(C(F)(F)F)c1", "met"),
    ("O=C(CCl)N1CCC(C(O)(c2ccccc2)c2ccccc2)CC1", "met"),
    ("O=C(/C=C/c1ccccc1)Nc1cc(C(F)(F)F)cc(C(F)(F)F)c1", "not met"),
    ("O=C(CCl)NC12CC3CC(CC(C3)C1)C2", "met"),
    ("O=C(CCl)N1CCN(CC(=O)N2CCOCC2)CC1", "met"),
]

Enquiry: Check the entry O=C(CCl)N1CCOCC1 : does isoTOP-ABPP ratio (reactivity profile), P68036_C86 equal or exceed 1?
Return: not met

Enquiry: What do you get for N#C/C(=C\c1cc(C(F)(F)F)cc(C(F)(F)F)c1)C(N)=O ?
Return: met
